test system: DU-145; assay: Growth inhibition of human DU145 cells after 48 hrs by SRB assay; assay type: functional; details: DU-145, 48 h
Attribute measured: GI50 (µM)

Mol | Number
CNc1ncnc(N)c1N(C=O)C/C=C(\C)CC[C@]1(C)[C@@H](C)CC[C@@]2(C)C(C)=CCC[C@@H]12 | 4.8
CNc1ncnc(N)c1N(C=O)C/C=C(\C)CC/C=C(\C)CC[C@@]1(C)C(C)=CCC[C@@H]1C | 6.8
CC1=CCC[C@H](C)[C@@]1(C)CC/C(C)=C/CC/C(C)=C/Cn1c[n+](C)c2ncnc(N)c21.[Cl-] | 4.2
CNc1ncnc(N)c1N(C=O)C/C=C(\C)CC[C@]1(C)[C@@H](C)CC[C@@]2(C)C(COC(=O)c3ccc[nH]3)=CCC[C@@H]12 | 4.6

(I) CNc1ncnc(N)c1N(C=O)C/C=C(\C)CC[C@@]1(C)[C@H](C)CC[C@@]2(C)C(C)=CCC[C@H]12
(II) CNc1ncnc(NC(C)C)c1N(C=O)C/C=C(\C)CC/C=C(\C)CC[C@@]1(C)C(C)=CCC[C@@H]1C
Param pair: I , II . Output: the one whose GI50 is numerically greater. Kindly give the label for the entry you pick.
II

###

tested on: P388; assay: Growth inhibition of mouse P388 cells after 48 hrs by Z1 Coulter particle counting; format: functional; details: P388, 48 h, read-out: ED50 (the source's name)
Attribute measured: EC50 (µM)

Molecule | Unit label | Number
CNc1ncnc(N)c1N(C=O)C/C=C(\C)CC[C@]1(C)[C@@H](C)CC[C@@]2(C)C(C)=CCC[C@@H]12 [AXISTATIN 1] | µM | 19.8

(I) CNc1ncnc(N)c1N(C=O)C/C=C(\C)CC/C=C(\C)CC[C@@]1(C)C(C)=CCC[C@@H]1C
(II) CNc1ncnc(NC(C)C)c1N(C=O)C/C=C(\C)CC/C=C(\C)CC[C@@]1(C)C(C)=CCC[C@@H]1C [AXISTATIN 3]
Param pair: I , II . Output: the one whose EC50 is numerically greater. Kindly give the label for the entry you pick.
I
(I: 15.7 µM, II: 8.9 µM)

###

tested on: P388; test: Growth inhibition of mouse P388 cells after 48 hrs by Z1 Coulter particle counting; format: functional; conditions: P388, 48 h, read-out: ED50 (the source's name)
pEC50: −log10 of the molar value.
Catalogue of pEC50 readings, one per entry.

Mol | pEC50
CNc1ncnc(N)c1N(C=O)C/C=C(\C)CC[C@@]1(C)[C@H](C)CC[C@@]2(C)C(C)=CCC[C@H]12 | < 4.64
CNc1ncnc(N)c1N(C=O)C/C=C(\C)CC[C@]1(C)[C@@H](C)CC[C@@]2(C)C(COC(=O)c3ccc[nH]3)=CCC[C@@H]12 | < 4.74

Would you kindly look at the next entry?
Specify pEC50 for CC1=CCC[C@H](C)[C@@]1(C)CC/C(C)=C/CC/C(C)=C/Cn1c[n+](C)c2ncnc(N)c21.[Cl-] and stop.
< 4.66
